System: E. coli 51A266
PROCEDURE SUMMARY: In vivo protection against E. coli infection in mice (Table IV)
CONDITIONS: PO, 25 mg./kg., doses 0.5, 4 and 24 hours after inoculation
# % Survivors per record follows
Reply with just the number (in %).

- COMPOUND: "CC1(C)S[C@@H]2[C@H](NC(=O)C(NC(=O)CNC(=N)c3ccc(Br)cc3)c3ccccc3)C(=O)N2[C@H]1C(=O)O (stereo partly shown)"
  % Survivors, %: 10

Report % Survivors from E. coli 51A266 testing of CC1(C)S[C@@H]2[C@H](NC(=O)C(NC(=O)CNC(=N)c3ccccc3)c3ccccc3)C(=O)N2[C@H]1C(=O)O (stereo partly shown)
0

Report % Survivors from E. coli 51A266 testing of CC1(C)S[C@@H]2[C@H](NC(=O)C(NC(=O)CNC(=N)c3ccc(Cl)cc3)c3ccccc3)C(=O)N2[C@H]1C(=O)O (stereo partly shown)
0

Report % Survivors from E. coli 51A266 testing of CC1(C)S[C@@H]2[C@H](NC(=O)C(NC(=O)CNC(=N)c3ccc(F)cc3)c3ccccc3)C(=O)N2[C@H]1C(=O)O (stereo partly shown)
10

----------
Test system: S. aureus 01A005
# MIC per record follows
Reply with just the number (in µg/mL).

- COMPOUND: "CC1(C)S[C@@H]2[C@H](NC(=O)C(NC(=O)CNC(=N)c3ccccc3)c3ccccc3)C(=O)N2[C@H]1C(=O)O (stereo partly shown)"
  VALUE UNIT: "µg/mL"
  MIC: 0.78
- COMPOUND: "CC1(C)S[C@@H]2[C@H](NC(=O)C(NC(=O)CNC(=N)c3ccc(Cl)cc3)c3ccccc3)C(=O)N2[C@H]1C(=O)O (stereo partly shown)"
  VALUE UNIT: "µg/mL"
  MIC: 0.39
- COMPOUND: "CC1(C)S[C@@H]2[C@H](NC(=O)C(NC(=O)CNC(=N)c3ccc(Br)cc3)c3ccccc3)C(=O)N2[C@H]1C(=O)O (stereo partly shown)"
  VALUE UNIT: "µg/mL"
  MIC: 0.39

For the compound CC1(C)S[C@@H]2[C@H](NC(=O)C(NC(=O)CNC(=N)c3ccc(F)cc3)c3ccccc3)C(=O)N2[C@H]1C(=O)O (stereo partly shown) , give its reported MIC.
0.39

----------
Measurement record for P. mirabiis 57C015; quantity recorded: MIC.
Reply with just the number (in µg/mL).

Report MIC from P. mirabiis 57C015 testing of CC1(C)S[C@@H]2[C@H](NC(=O)C(NC(=O)CNC(=N)c3ccc(Cl)cc3)c3ccccc3)C(=O)N2[C@H]1C(=O)O (stereo partly shown)
3.12

Report MIC from P. mirabiis 57C015 testing of CC1(C)S[C@@H]2[C@H](NC(=O)C(NC(=O)CNC(=N)c3ccccc3)c3ccccc3)C(=O)N2[C@H]1C(=O)O (stereo partly shown)
12.5

Report MIC from P. mirabiis 57C015 testing of CC1(C)S[C@@H]2[C@H](NC(=O)C(NC(=O)CNC(=N)c3ccc(F)cc3)c3ccccc3)C(=O)N2[C@H]1C(=O)O (stereo partly shown)
3.12

Report MIC from P. mirabiis 57C015 testing of CC1(C)S[C@@H]2[C@H](NC(=O)C(NC(=O)CNC(=N)c3ccc(Br)cc3)c3ccccc3)C(=O)N2[C@H]1C(=O)O (stereo partly shown)
3.12
